# Experimental protocol: AUC in ICR mouse at 10 mg/kg, po by LC/MS/MS analysis
# Assay type: ADME, organism-based
# Set-up: dose 10 mg/kg, route oral
# Settings: plasma
Endpoint name: AUC (ng·h/mL)
The response must be a number in ng·h/mL with no trailing unit.

Req: Input Cn1nnc(-c2ccc(-c3ccc(N4C[C@H](CO)OC4=O)cc3F)cn2)n1 , output reported AUC.
Resp: 49800

* * *

# Experimental protocol: Cmax in ICR mouse at 10 mg/kg, po by LC/MS/MS analysis
# Format: ADME, organism-based
# Set-up: dose 10 mg/kg, route oral
# Settings: in vivo
Endpoint name: Cmax (ng/mL)
The response must be a number in ng/mL with no trailing unit.

Req: Input Cn1nnc(-c2ccc(-c3ccc(N4C[C@H](CO)OC4=O)cc3F)cn2)n1 , output reported Cmax.
Resp: 4620

* * *

# Experimental protocol: Chemical stability of compound in distilled water assessed as compound remaining at pH 3 at 100 ug/ml after 8 hrs
# Format: physicochemical
# Settings: buffer, pH 3, 8 h
Endpoint name: Stability (%)
The response must be a number in % with no trailing unit.

Req: Input C[C@H](N)C(=O)OC[C@H]1CN(c2ccc(-c3ccc(-c4nnn(C)n4)nc3)c(F)c2)C(=O)O1.O=C(O)C(F)(F)F , output reported Stability.
Resp: 97

Req: Input Cn1nnc(-c2ccc(-c3ccc(N4C[C@H](COC(=O)CCN)OC4=O)cc3F)cn2)n1.O=C(O)C(F)(F)F , output reported Stability.
Resp: 99.6

Req: Input CC(C)[C@H](N)C(=O)OC[C@H]1CN(c2ccc(-c3ccc(-c4nnn(C)n4)nc3)c(F)c2)C(=O)O1.Cl , output reported Stability.
Resp: 99.9

Req: Input C[C@H](N)C(=O)OC[C@H]1CN(c2ccc(-c3ccc(-c4nnn(C)n4)nc3)c(F)c2)C(=O)O1.Cl , output reported Stability.
Resp: 98

Req: Input Cl.Cn1nnc(-c2ccc(-c3ccc(N4C[C@H](COC(=O)CCN)OC4=O)cc3F)cn2)n1 , output reported Stability.
Resp: 99.9

Req: Input Cn1nnc(-c2ccc(-c3ccc(N4C[C@H](COC(=O)CN)OC4=O)cc3F)cn2)n1.O=C(O)C(F)(F)F , output reported Stability.
Resp: 86.6

Req: Input CC(C)[C@H](N)C(=O)OC[C@H]1CN(c2ccc(-c3ccc(-c4nnn(C)n4)nc3)c(F)c2)C(=O)O1.O=C(O)C(F)(F)F , output reported Stability.
Resp: 99.9

Req: Input Cn1nnc(-c2ccc(-c3ccc(N4C[C@H](COC(=O)[C@@H]5CCCN5)OC4=O)cc3F)cn2)n1.O=C(O)C(F)(F)F , output reported Stability.
Resp: 81.9

Req: Input Cl.Cn1nnc(-c2ccc(-c3ccc(N4C[C@H](COC(=O)CN)OC4=O)cc3F)cn2)n1 , output reported Stability.
Resp: 95.1

* * *

# Test system: Staphylococcus aureus
# Experimental protocol: Antibacterial activity against methicillin-susceptible Staphylococcus aureus by agar dilution method
# Format: functional
Endpoint name: MIC
Don't forget the unit after the value.

Req: Input COC[C@H]1CN(c2ccc(-c3ccc(-c4nnn(C)n4)nc3)c(F)c2)C(=O)O1 , output reported MIC.
Resp: 2 µg/mL

Req: Input Cn1nnc(-c2ccc(-c3ccc(N4C[C@H](COc5ccon5)OC4=O)cc3F)cn2)n1 , output reported MIC.
Resp: 0.5 µg/mL

Req: Input Cc1nnc(-c2ccc(-c3ccc(N4C[C@H](CO)OC4=O)cc3F)cn2)o1 , output reported MIC.
Resp: 0.5 µg/mL

Req: Input Cn1nnc(-c2ccc(-c3ccc(N4C[C@H](Cn5nccn5)OC4=O)cc3F)cn2)n1 , output reported MIC.
Resp: 16 µg/mL

Req: Input Cn1nnc(-c2ccc(-c3ccc(N4C[C@H](CF)OC4=O)cc3F)cn2)n1 , output reported MIC.
Resp: 1 µg/mL

Req: Input Cn1nnc(-c2ccc(-c3ccc(N4C[C@H](Cn5ccnn5)OC4=O)cc3F)cn2)n1 , output reported MIC.
Resp: 0.25 µg/mL

Req: Input CC(=O)NC[C@H]1CN(c2ccc(-c3ccc(-c4nnnn4C)nc3)c(F)c2)C(=O)O1 , output reported MIC.
Resp: 0.78 µg/mL

Req: Input Cc1nnc(-c2ccc(-c3ccc(N4C[C@H](Cn5ccnn5)OC4=O)cc3F)cn2)o1 , output reported MIC.
Resp: 0.25 µg/mL

* * *

# Test system: Staphylococcus aureus
# Experimental protocol: Antibacterial activity against methicillin-susceptible Staphylococcus aureus by agar dilution method
# Format: functional
Endpoint name: MIC (µg/mL)
The response must be a number in µg/mL with no trailing unit.

Req: Input Cn1nnc(-c2ccc(-c3ccc(N4C[C@H](CO)OC4=O)cc3F)cn2)n1 , output reported MIC.
Resp: 0.5

Req: Input Cn1nnc(-c2ccc(-c3ccc(N4C[C@H](CNC(=O)c5cccs5)OC4=O)cc3F)cn2)n1 , output reported MIC.
Resp: 0.5

Req: Input Cc1nnc(-c2ccc(-c3ccc(N4C[C@H](COc5ccon5)OC4=O)cc3F)cn2)o1 , output reported MIC.
Resp: 1

Req: Input Cn1nnc(-c2ccc(-c3ccc(N4C[C@H](CNC(=O)c5ccco5)OC4=O)cc3F)cn2)n1 , output reported MIC.
Resp: 1

Req: Input Cn1nnc(-c2ccc(-c3ccc(N4C[C@H](CNC(=O)CO)OC4=O)cc3F)cn2)n1 , output reported MIC.
Resp: 1

Req: Input Cn1nnc(-c2ccc(-c3ccc(N4C[C@H](Cn5cncn5)OC4=O)cc3F)cn2)n1 , output reported MIC.
Resp: 2

Req: Input COCC(=O)NC[C@H]1CN(c2ccc(-c3ccc(-c4nnn(C)n4)nc3)c(F)c2)C(=O)O1 , output reported MIC.
Resp: 1

Req: Input CNC[C@H]1CN(c2ccc(-c3ccc(-c4nnn(C)n4)nc3)c(F)c2)C(=O)O1 , output reported MIC.
Resp: 4

Req: Input CN(C)CC1CN(c2ccc(-c3ccc(-c4nnn(C)n4)nc3)c(F)c2)C(=O)O1 (single isomer, unassigned) , output reported MIC.
Resp: 4

* * *

# Tested on: Haemophilus influenzae
# Experimental protocol: Antibacterial activity against Haemophilus influenzae by agar dilution method
# Type: functional
Endpoint name: MIC (µg/mL)
The response must be a number in µg/mL with no trailing unit.

Req: Input Cn1nnc(-c2ccc(-c3ccc(N4C[C@H](CO)OC4=O)cc3F)cn2)n1 , output reported MIC.
Resp: 4

Req: Input Cn1nnc(-c2ccc(-c3ccc(N4C[C@H](CNC(=O)c5ccco5)OC4=O)cc3F)cn2)n1 , output reported MIC.
Resp: 16

Req: Input CC(=O)NC[C@H]1CN(c2ccc(N3CCOCC3)c(F)c2)C(=O)O1 , output reported MIC.
Resp: 8

Req: Input Cc1nnc(-c2ccc(-c3ccc(N4C[C@H](CO)OC4=O)cc3F)cn2)o1 , output reported MIC.
Resp: 4

Req: Input COCC(=O)NC[C@H]1CN(c2ccc(-c3ccc(-c4nnn(C)n4)nc3)c(F)c2)C(=O)O1 , output reported MIC.
Resp: 16

* * *

Could you please report measured solubility for the items listed next?
# Experimental protocol: Aqueous solubility of compound in distilled water
# Assay type: physicochemical
The response must be a number in mg/mL with no trailing unit.

Req: Input CC(C)[C@H](N)C(=O)OC[C@H]1CN(c2ccc(-c3ccc(-c4nnn(C)n4)nc3)c(F)c2)C(=O)O1.O=C(O)C(F)(F)F , output reported solubility.
Resp: 4.7

Req: Input Cn1nnc(-c2ccc(-c3ccc(N4C[C@H](COC(=O)CCN)OC4=O)cc3F)cn2)n1.O=C(O)C(F)(F)F , output reported solubility.
Resp: 2.6

Req: Input Cl.Cn1nnc(-c2ccc(-c3ccc(N4C[C@H](COC(=O)CCN)OC4=O)cc3F)cn2)n1 , output reported solubility.
Resp: 20.4

Req: Input Cn1nnc(-c2ccc(-c3ccc(N4C[C@H](COC(=O)CN)OC4=O)cc3F)cn2)n1.O=C(O)C(F)(F)F , output reported solubility.
Resp: 28

* * *

# Experimental protocol: Half life in ICR mouse at 10 mg/kg, iv by LC/MS/MS analysis
# Format: ADME, organism-based
# Design: dose 10 mg/kg, route intravenous
# Settings: in vivo
Endpoint name: half-life

Req: Input Cn1nnc(-c2ccc(-c3ccc(N4C[C@H](CO)OC4=O)cc3F)cn2)n1 [TEDIZOLID] , output reported half-life.
Resp: 3.49 h

* * *

# Test system: Staphylococcus aureus
# Experimental protocol: Antibacterial activity against methicillin-susceptible Staphylococcus aureus Smith infected po dosed ICR mouse assessed as protection against mouse mortality administered 1 hr after infection measured up to 7 days
# Format: functional
Endpoint name: ED50 (mg/kg)
The response must be a number in mg/kg with no trailing unit.

Req: Please report ED50 with Staphylococcus aureus for item Cc1nnc(-c2ccc(-c3ccc(N4C[C@H](COc5ccon5)OC4=O)cc3F)cn2)o1 .
Resp: 6.5

Req: Please report ED50 with Staphylococcus aureus for item COCC(=O)NC[C@H]1CN(c2ccc(-c3ccc(-c4nnn(C)n4)nc3)c(F)c2)C(=O)O1 .
Resp: 20.5

Req: Please report ED50 with Staphylococcus aureus for item CC(=O)NC[C@H]1CN(c2ccc(N3CCOCC3)c(F)c2)C(=O)O1 .
Resp: 9.4

Req: Please report ED50 with Staphylococcus aureus for item Cn1nnc(-c2ccc(-c3ccc(N4C[C@H](Cn5ccnn5)OC4=O)cc3F)cn2)n1 .
Resp: 5.74

Req: Please report ED50 with Staphylococcus aureus for item Cc1nnc(-c2ccc(-c3ccc(N4C[C@H](CO)OC4=O)cc3F)cn2)o1 .
Resp: 4.2

Req: Please report ED50 with Staphylococcus aureus for item Cn1nnc(-c2ccc(-c3ccc(N4C[C@H](CO)OC4=O)cc3F)cn2)n1 .
Resp: 8.8
